Measured pIC50 values are reported for all entries that follow.
TARGET: PBP3 from Acinetobacter baumannii (ATCC 19606) (Acinetobacter baumannii)
Sequence (A0ABX6CK25 64-610): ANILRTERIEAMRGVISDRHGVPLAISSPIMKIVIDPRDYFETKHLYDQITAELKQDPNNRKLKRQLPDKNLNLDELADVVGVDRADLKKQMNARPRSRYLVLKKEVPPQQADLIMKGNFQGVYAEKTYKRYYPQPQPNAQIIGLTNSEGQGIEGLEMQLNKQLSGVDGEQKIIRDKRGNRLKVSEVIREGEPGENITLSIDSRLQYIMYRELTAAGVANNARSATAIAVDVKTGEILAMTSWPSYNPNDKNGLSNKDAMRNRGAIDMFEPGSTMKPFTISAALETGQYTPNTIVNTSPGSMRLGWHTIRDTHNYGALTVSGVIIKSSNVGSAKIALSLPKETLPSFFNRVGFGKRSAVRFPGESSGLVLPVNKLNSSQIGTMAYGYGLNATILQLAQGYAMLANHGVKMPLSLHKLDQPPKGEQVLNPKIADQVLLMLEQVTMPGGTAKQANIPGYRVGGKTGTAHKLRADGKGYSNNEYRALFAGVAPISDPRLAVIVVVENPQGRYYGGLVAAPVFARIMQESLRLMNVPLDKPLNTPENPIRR
pIC50: −log10 of the molar value.
METRIC: pIC50

{"columns": ["MOLECULE", "METRIC", "OBSERVED RESULT"],
 "data": [
  ["O=C(NCCCN1CCN(C(=O)N[C@H](C(=O)N[C@H]2Cc3ccc(F)c(C(=O)O)c3OB2O)c2cc(F)c(O)c(O)c2Cl)C1=O)c1ccccc1", "pIC50", "3.60 to 4.30"],
  ["O=C(NCCN1CCN(C(=O)NC(C(=O)N[C@H]2Cc3ccc(F)c(C(=O)O)c3OB2O)c2cc(F)c(O)c(O)c2Cl)C1=O)c1ccccc1 (stereo partly drawn)", "pIC50", "> 5.00"],
  ["O=C(O)c1c(F)ccc2c1OB(O)[C@@H](NC(=O)[C@H](NC(=O)N1CCN(Cc3ccc(O)c(O)c3Cl)C(=O)C1=O)c1ccc(P(=O)(O)O)c(F)c1F)C2", "pIC50", "> 5.00"],
  ["O=C(O)c1c(F)ccc2c1OB(O)[C@@H](NC(=O)[C@H](NC(=O)N1CCN(C3CCN(C(=O)c4ccncc4)CC3)C1=O)c1cc(F)c(O)c(O)c1Cl)C2", "pIC50", "> 5.00"],
  ["O=C(NCCCN1CCN(C(=O)N[C@@H](C(=O)N[C@H]2Cc3ccc(F)c(C(=O)O)c3OB2O)c2cc(F)c(O)c(O)c2Cl)C(=O)C1=O)c1ccc(O)cc1F (racemic)", "pIC50", "4.30 to 5.00"],
  ["O=C(NCCCS(=O)(=O)N1CCN(C(=O)NC(C(=O)N[C@H]2Cc3ccc(F)c(C(=O)O)c3OB2O)c2cc(F)c(O)c(O)c2Cl)C1=O)c1ccc(O)cc1 (stereo partly drawn)", "pIC50", "> 5.00"],
  ["O=C(O)c1c(F)ccc2c1OB(O)[C@@H](NC(=O)[C@H](NC(=O)N1CCN(C3CCN(C(=O)Nc4cc(O)cc(F)c4)CC3)C1=O)c1cc(F)c(O)c(O)c1Cl)C2 (single isomer, unassigned)", "pIC50", "> 5.00"],
  ["O=C(NCCCN1CCN(C(=O)NC(C(=O)N[C@H]2Cc3ccc(F)c(C(=O)O)c3OB2O)c2cc(F)c(O)c(O)c2Cl)C(=O)C1=O)c1cc(O)ccc1F (stereo partly drawn)", "pIC50", "> 5.00"],
  ["O=C(NCCN1CCN(C(=O)NC(C(=O)N[C@H]2Cc3ccc(F)c(C(=O)O)c3OB2O)c2cc(F)c(O)c(O)c2Cl)C(=O)C1=O)c1cccc(O)c1 (stereo partly drawn)", "pIC50", "> 5.00"],
  ["CS(=O)(=O)N1CCN(C(=O)N[C@@H](C(=O)N[C@H]2Cc3ccc(F)c(C(=O)O)c3OB2O)c2ccc(P(=O)(O)O)c(F)c2)C1=O (single isomer, unassigned)", "pIC50", "> 5.00"],
  ["O=C(NCCCS(=O)(=O)N1CCN(C(=O)N[C@H](C(=O)N[C@H]2Cc3ccc(F)c(C(=O)O)c3OB2O)c2cc(F)c(O)c(O)c2Cl)C1=O)c1cccc(O)c1", "pIC50", "> 5.00"],
  ["O=C(O)c1c(F)ccc2c1OB(O)[C@@H](NC(=O)[C@H](NC(=O)N1CCN(C3CCN(C(=O)c4cccc(O)c4Cl)CC3)C1=O)c1cc(F)c(O)c(O)c1Cl)C2 (single isomer, unassigned)", "pIC50", "> 5.00"],
  ["O=C(O)c1cccc2c1OB(O)[C@@H](NC(=O)C(NC(=O)N1CCN(Cc3ccc(O)c(O)c3Cl)C(=O)C1=O)c1ccc(P(=O)(O)O)cc1)C2 (stereo partly drawn)", "pIC50", "> 5.00"],
  ["O=C(CN1CCN(C(=O)NC(C(=O)N[C@H]2Cc3ccc(F)c(C(=O)O)c3OB2O)c2cc(F)c(O)c(O)c2Cl)C(=O)C1=O)Nc1nccs1 (stereo partly drawn)", "pIC50", "> 5.00"],
  ["O=C(O)c1c(F)ccc2c1OB(O)[C@@H](NC(=O)[C@H](NC(=O)N1CCN(C3CCN(C(=O)Nc4cc(F)c(F)c(O)c4F)CC3)C(=O)C1=O)c1cc(F)c(O)c(O)c1Cl)C2", "pIC50", "> 5.00"],
  ["O=C(NCCN1CCN(C(=O)N[C@@H](C(=O)N[C@H]2Cc3ccc(F)c(C(=O)O)c3OB2O)c2cc(F)c(O)c(O)c2Cl)C1=O)Nc1ccc(O)cc1", "pIC50", "> 5.00"],
  ["O=C(O)c1c(F)ccc2c1OB(O)[C@@H](NC(=O)[C@@H](NC(=O)N1CCN(Cc3ccc(O)c(O)c3Cl)C(=O)C1=O)c1ccc(P(=O)(O)O)c(F)c1F)C2", "pIC50", "> 5.00"],
  ["O=C(O)c1c(F)ccc2c1OB(O)[C@@H](NC(=O)[C@H](NC(=O)N1CCN(C3CCN(C(=O)Nc4cc(O)cc(O)c4)CC3)C1=O)c1cc(F)c(O)c(O)c1Cl)C2", "pIC50", "> 5.00"],
  ["O=C(O)c1c(F)ccc2c1OB(O)[C@@H](NC(=O)[C@H](NC(=O)N1CCN(C3CCN(C(=O)c4ccc(F)c(O)c4F)CC3)C1=O)c1cc(F)c(O)c(O)c1Cl)C2 (single isomer, unassigned)", "pIC50", "> 5.00"],
  ["O=C(O)c1c(F)ccc2c1OB(O)[C@@H](NC(=O)[C@H](NC(=O)N1CCN(CCNC(=O)[C@@H]3CCCN3)C(=O)C1=O)c1cc(F)c(O)c(O)c1Cl)C2", "pIC50", "> 5.00"],
  ["O=C(NCCCS(=O)(=O)N1CCN(C(=O)N[C@H](C(=O)N[C@H]2Cc3ccc(F)c(C(=O)O)c3OB2O)c2ccc(P(=O)(O)O)cc2)C1=O)c1ccc(O)c(O)c1Cl (single isomer, unassigned)", "pIC50", "4.30 to 5.00"]
]}

----------
System: N. gonorrhoeae MS11
RUN DESCRIPTION: Liquid broth MIC in Fastidious broth
ASSAY SETUP: Neisseria gonorrhoeae, MS11, read-out: Minimum Inhibitory Concentration, MS11
METRIC: MIC

{"columns": ["COMPOUND", "OBSERVED RESULT"],
 "data": [
  ["O=C(NCCS(=O)(=O)N1CCN(C(=O)N[C@@H](C(=O)N[C@H]2Cc3ccc(F)c(C(=O)O)c3OB2O)c2cc(F)c(O)c(O)c2Cl)C1=O)Nc1cccnc1", "16 to 32 µg/mL"],
  ["O=C(NCCN1CCN(C(=O)NC(C(=O)N[C@H]2Cc3ccc(F)c(C(=O)O)c3OB2O)c2cc(F)c(O)c(O)c2Cl)C1=O)Nc1cccnc1 (some centres unmarked)", "16 to 32 µg/mL"],
  ["O=C(NCCS(=O)(=O)N1CCN(C(=O)N[C@@H](C(=O)N[C@H]2Cc3ccc(F)c(C(=O)O)c3OB2O)c2cc(F)c(O)c(O)c2Cl)C1=O)c1ccc(O)cc1", "4 to 8 µg/mL"],
  ["O=C(NCCCN1CCN(C(=O)NC(C(=O)N[C@H]2Cc3ccc(F)c(C(=O)O)c3OB2O)c2cc(F)c(O)c(O)c2Cl)C1=O)c1cccnc1 (some centres unmarked)", "> 64 µg/mL"],
  ["O=C(NCCCN1CCN(C(=O)NC(C(=O)N[C@H]2Cc3ccc(F)c(C(=O)O)c3OB2O)c2cc(F)c(O)c(O)c2Cl)C(=O)C1=O)c1ccc(O)c(Cl)c1 (some centres unmarked)", "16 to 32 µg/mL"]
]}

----------
Listing of entries alongside the reported MIC.
Tested on: P. aeruginosa CDC-0095
RUN DESCRIPTION: microbe, parasite or virus in culture
Type: cell-based
ASSAY SETUP: Pseudomonas aeruginosa, CDC0095, read-out: Minimum inhibitory concentration, P. aeruginosa CDC-0095

{"columns": ["MOLECULE", "TARGET", "MIC"],
 "data": [
  ["O=C(O)c1cccc2c1OB(O)[C@@H](NC(=O)[C@H](NC(=O)N1CCN(S(=O)(=O)c3ccc(O)c(O)c3Cl)C1=O)c1ccc(P(=O)(O)O)cc1)C2", "P. aeruginosa CDC-0095", "< 1 µg/mL"],
  ["O=C(O)c1c(F)ccc2c1OB(O)[C@@H](NC(=O)[C@H](NC(=O)N1CCN(C3CCN(C(=O)Nc4ccc(O)c(O)c4Cl)CC3)C1=O)c1ccc(P(=O)(O)O)cc1)C2 (single isomer, unassigned)", "P. aeruginosa CDC-0095", "32 to 64 µg/mL"],
  ["O=C(NCCCS(=O)(=O)N1CCN(C(=O)NC(C(=O)N[C@H]2Cc3ccc(F)c(C(=O)O)c3OB2O)c2cc(F)c(O)c(O)c2Cl)C1=O)c1nccs1 (stereo partly drawn)", "P. aeruginosa CDC-0095", "> 128 µg/mL"]
]}

Data provenance: patent US20240270762A1
